# assay text: drug combination growth inhibition, ovarian cancer – cell-based, oncology-focused library, rucaparib conditional, profiling panel (AID 1508598)
# condition description: patient-derived ovarian cancer cells, CellTiter-Glo viability, 144 h; at 1.25 µM; OCI-P5x cells; with rucaparib 20 µM; 100% = cells with rucaparib alone
Calls of active or inactive are those of the source.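 How the source made its calls: active means normalized viability below 100% at a tested concentration; inactive means the rest.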
Field 'call' accepts label 1 (active), label 0 (inactive)

Check out these entries, answers already filled in.
// return assay outcome for CCNC(=O)c1noc(-c2cc(Cl)c(O)cc2O)c1-c1ccc(OC)cc1
label 1

How about this compound: Cc1cc(C)c(-c2csc(NC(=O)c3ccccc3)n2)c(C)c1
label 0

How about this compound: COc1cc2c(cc1O)CC[C@@H]1[C@H]2CC[C@]2(C)[C@H](O)CC[C@@H]12
label 0

How about this compound: COc1cc(C(=O)NC2CCN(C)CC2)ccc1Nc1ncc2c(n1)N(C1CCCC1)CC(F)(F)C(=O)N2C
label 1

How about this compound: O=C1[C@H](CC[C@H](O)c2ccc(F)cc2)[C@H](c2ccc(O)cc2)N1c1ccc(F)cc1
label 1

Others:
// return assay outcome for COc1cc(=C2C=c3ccccc3=N2)[nH]/c1=C\c1[nH]c(C)cc1C
label 1

How about this compound: CC(=O)O[C@]12CO[C@@H]1C[C@H](O)[C@]1(C)C(=O)[C@H](O)C3=C(C)[C@H](OC(=O)[C@H](O)[C@@H](NC(=O)OC(C)(C)C)c4ccccc4)C[C@](O)([C@H](OC(=O)c4ccccc4)C21)C3(C)C (stereo partly drawn)
label 1

How about this compound: O=C(NCC1(c2nc(-c3ccccc3)cs2)CCOCC1)c1cccc(-c2noc(C(F)(F)F)n2)c1
label 1

###

# assay text: growth inhibition, single agents and combos, LFS_MB_2R, cell-based, cisplatin combos, synergistic combos for chromothripsis tumors (AID 1671457);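 further: cells exposed to compound for four days before readout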
# condition description: LFS_MB_2R medulloblastoma cells, measured here: combination with cisplatin, at 0.5 µM, stronger effect = higher value
# if value of inhibition reaches -10%, tag t; if it stays below, tag f

Confirm if inhibition reported for the compound C[C@H](NC(=O)c1ccccc1N=Cc1c(O)ccc2ccccc12)c1ccccc1 is -10% or above.
t

Others:
Confirm if inhibition reported for the compound O=C(CCSc1nc2ccccc2c(=O)[nH]1)NC1CCC(c2nnc(-c3ccccc3)o2)CC1 (stereo not given) is -10% or above.
f

How about this compound: C=C1CCC(O)CC1=CC=C1CCCC2(C)C1CCC2C(C)C=CC(C)C(C)C (stereo not given)
f

How about this compound: O=C(CCCCCCC(=O)NO)NO
f

How about this compound: CC(C)(O)[C@H]1CC[C@@](C)(C2[C@@H](O)C[C@@]3(C)[C@@H]4C[C@H](O)C5C(C)(C)[C@@H](O)CCC56CC46CC[C@]23C)O1 (stereo not given in full)
f

###

# assay text: growth inhibition, single agent or in combination, cell-based, chromothripsis tumors, cisplatin or BGB combos (AID 1671449);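 further: cells exposed for 96 hours; 0% = vehicle DMSO and 100% = killing by high DMSO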
# condition description: LFS_MB_P medulloblastoma cells, measured here: combination with BGB IC40, at 0.005 µM
# if value of inhibition reaches -30%, tag YES; if it stays below, tag NO

Confirm if inhibition reported for the compound CC(C=CC(=O)NO)=CC(C)C(=O)c1ccc(N(C)C)cc1 (centres undefined) is -30% or above.
YES

Now look at this entry.
Confirm if inhibition reported for the compound CC(C)(C#N)c1ccc(N2C(=O)OCc3cnc4ccc(-c5cnc6ccccc6c5)cc4c32)cc1 is -30% or above.
YES

###

# assay text: growth inhibition, single agent or in combination, cell-based, chromothripsis tumors, cisplatin or BGB combos (AID 1671449);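 further: cells exposed for 96 hours; 0% = vehicle DMSO and 100% = killing by high DMSO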
# condition description: LFS_MB_P medulloblastoma cells, measured here: combination with BGB IC40, at 0.05 µM
assay metric: inhibition (%)
A number alone suffices; assume %.

Solved entries:
Field request: inhibition | item: NC(=O)c1ncn(C2OC(CO)C(O)C2O)c1O (stereo not given)
-10.8

How about this compound: CC(C)(O)[C@H]1CC[C@@](C)(C2[C@@H](O)C[C@@]3(C)[C@@H]4C[C@H](O)C5C(C)(C)[C@@H](O)CCC56CC46CC[C@]23C)O1 (stereo not given in full)
-19.9

How about this compound: CN(C)C(=S)NN=C(c1ccccn1)c1ccccn1
73.6

How about this compound: CON=C1CN(c2nc3c(cc2F)c(=O)c(C(=O)O)cn3C2CC2)CC1CN (stereo not given)
-34.5

Others:
Field request: inhibition | item: CC(Oc1cc(-c2cnn(C3CCNCC3)c2)cnc1N)c1c(Cl)ccc(F)c1Cl (stereo not given)
-10.8

###

# assay text: drug combination growth inhibition, ovarian cancer – cell-based, oncology-focused library, rucaparib conditional, profiling panel (AID 1508598)
# condition description: patient-derived ovarian cancer cells, CellTiter-Glo viability, 144 h; at 0.000305 µM; OCI-C5x cells; without rucaparib; stronger effect = lower value
*1 amine or outer side, *2 acyl side, *3 side chain or, on linkers, in order; H or OH if unused. Where a SMILES comes first, the peptide text is derived from it. Bridges are numbered along the chain shown (N, C = ends). Roman numbers before positions name the chains, in order. [ ]: non-standard residue; d: D form. Hexamethylenediamine = C(CCCN[*:2])CCN[*:1]; Dip = N[C@H](C(=O)O)C(c1ccccc1)c1ccccc1; Chg = N[C@H](C(=O)O)C1CCCCC1; NMeA = CN[C@@H](C)C(=O)O
assay metric: viability (%)
A number alone suffices; assume %.

Field request: viability | item: CC(C)NCCCn1c(Sc2cc3c(cc2I)OCO3)nc2c(N)ncnc21
112

How about this molecule: CN[C@@H](C)C(=O)N[C@H](C(=O)N1CCC[C@H]1C(=O)N[C@H](C(=O)NCCCCCCNC(=O)[C@@H](NC(=O)[C@@H]1CCCN1C(=O)[C@@H](NC(=O)[C@H](C)NC)C1CCCCC1)C(c1ccccc1)c1ccccc1)C(c1ccccc1)c1ccccc1)C1CCCCC1 (I: H-[NMeA][Chg]P[Dip] / II: H-[NMeA][Chg]P[Dip]; linker I:C-II:C via Hexamethylenediamine)
115

Others:
Field request: viability | item: C[C@@]1(c2nc3c(C(N)=O)cccc3[nH]2)CCCN1
110

How about this molecule: Cc1[nH]c(C=C2C(=O)Nc3ccc(S(=O)(=O)Cc4c(Cl)cccc4Cl)cc32)c(C)c1C(=O)N1CCC[C@@H]1CN1CCCC1
124

How about this molecule: O=c1[nH]c(=O)n([C@@H]2C[C@H](O)[C@@H](CO)O2)cc1F
119

How about this molecule: C[C@H](O[C@H]1OCCN(Cc2n[nH]c(=O)[nH]2)[C@H]1c1ccc(F)cc1)c1cc(C(F)(F)F)cc(C(F)(F)F)c1
113

How about this molecule: CCOc1ccc(Cc2cc([C@@H]3O[C@H](CO)[C@@H](O)[C@H](O)[C@@H]3O)ccc2Cl)cc1
102

###

# assay text: galactose survival enhancers in mitochondrial complex I cybrids – cell-based, galactose medium, ATP luminescence, primary screen (AID 1645843);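 further: positive z means more ATP and so rescue of galactose-driven cybrid death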
# condition description: complex I mutant cybrid cells, 72 h, stronger effect = higher value
assay metric: z-score
Provide a numeric answer; units are not to be included.

Field request: z-score | item: NNC(=O)c1ccc(-c2ccccc2Cl)o1
0.765

How about this molecule: CC(=O)[C@]1(O)Cc2c(O)c3c(c(O)c2C(OC2CC(N)C(O)C(C)O2)C1)C(=O)c1ccccc1C3=O (stereo partly specified)
-1.88

How about this molecule: CN1CCN(CC(C)(C)C)CC1CCO (stereo unspecified)
-0.57

How about this molecule: CC(C)CN1CC(OCc2cccc(F)c2)CN(C(=O)c2cccc(N3CCNC3=O)c2)CC1=O (stereo unspecified)
0.795

How about this molecule: O=C(O)c1ccc(-c2ccccc2Cl)o1
0.53

# input for lookup
Field request: z-score | item: Cc1csc(CNc2nccc(-c3cn(C)nc3C)n2)n1
-0.445

###

# assay text: viability loss with induced miR-34 in A549 – imaging, A549 dox-inducible miR-34, nuclei and caspase counts, primary screen (AID 1347080)
# condition description: A549 miR-34 inducible, Hoechst nuclei count, 48 h; measured here: total cells with miR-34 induction; stronger effect = lower value
Peptide text beside a SMILES is read from it. * marks the point of attachment. Cbz = O=C(OCc1ccccc1)*
// classify: if (cell count < 8000) criterion met else criterion not met

Here's an entry: O=C[C@@H]1CCCN1C(=O)[C@@H]1CCCN1C(=O)OCc1ccccc1 (Cbz-Pro-Pro-aldehyde) . Is its cell count below 8000?
criterion met

How about this molecule: CCNC(=O)C1OC(n2cnc3c(N)nc(NCCc4ccc(CCC(=O)O)cc4)nc32)C(O)C1O (centres undefined)
criterion met

How about this molecule: OCCCc1cn(C2CCN(c3nn4cnnc4c4ccccc34)CC2)nn1
criterion not met

How about this molecule: O=C(Cc1noc2ccccc12)NCCOc1cccnc1
criterion not met

How about this molecule: CC(CCC(=O)O)C1CC[C@H]2[C@@H]3CC[C@@H]4CC(O)CC[C@]4(C)[C@H]3CC[C@]12C (some centres undefined)
criterion met

Others:
Here's an entry: O=C1CN(c2ncnc3nc[nH]c23)CCN1CCc1ccccc1 . Is its cell count below 8000?
criterion not met
